assay: qHTS assay to identify small molecule agonists of the estrogen receptor beta (ER-beta) signaling pathway - cell viability counter screen (AID 1259380); conditions: ER-beta-bla HEK293T viability, CellTiter-Glo luminescence, 16 h; series mostly up to 92.4 µM; note: nearly all actives have a fitted effect of over 30% in size
Records with an inconclusive call do not appear. Calls of active or inactive are those of the source. Calls come from the whole dose curve; as a rule, active = well fitted cell-killing curve with a large enough effect in the repeat runs; inconclusive = weak or mixed curves, or effect the other way; inactive = flat fitted curve, though single readings scatter.
Write down the outcome that applies. Available outcomes: label 1 (active), label 0 (inactive)

QUERY: // return assay outcome for `CC[C@H](C)[C@H](N)C(=O)O`
RESULT: label 0

QUERY: // return assay outcome for `CNS(=O)(=O)Cc1ccc2[nH]cc(CCN(C)C)c2c1`
RESULT: label 0

QUERY: // return assay outcome for `N#Cc1c(F)cccc1F`
RESULT: label 0

QUERY: // return assay outcome for CC(C)(C)C1CCCCC1O (centres undefined)
RESULT: label 0

QUERY: // return assay outcome for `CCCCOc1cc(C(=O)OCCN(CC)CC)ccc1N`
RESULT: label 0

QUERY: // return assay outcome for `COc1cc(C(C)(C)C)c(O)c(C(C)(C)C)c1`
RESULT: label 0

====

assay: A CellTox Green Cytotoxicity Assay to monitor cytotoxicity in HepG2 cells - 40 hour (AID 1224879); settings: CellTox Green fluorescence; series mostly up to 76.8 µM; note: nearly all actives have a fitted effect of over 40% in size
Records with an inconclusive call do not appear. Active and inactive are the calls of the source. Calls come from the whole dose curve; as a rule, active = well fitted activation curve with a large enough effect in the repeat runs; inconclusive = weak or mixed curves; inactive = flat fitted curve, though single readings scatter.
Write down the outcome that applies. Available outcomes: active, inactive

QUERY: // return assay outcome for `O=C(NN1CCCC1)NS(=O)(=O)c1ccc(Cl)cc1`
RESULT: inactive

QUERY: // return assay outcome for `Cc1ccc(C(N)=O)cc1N`
RESULT: inactive

QUERY: // return assay outcome for `Cc1ccc(C)o1`
RESULT: inactive

QUERY: // return assay outcome for N[C@H]1C(O)O[C@H](CO)[C@H](O)[C@@H]1O (some centres not stated)
RESULT: inactive

QUERY: // return assay outcome for `COc1ccc(C(C)=O)cc1`
RESULT: inactive

QUERY: // return assay outcome for `CC(=O)N(O)CCCCCNC(=O)CCC(=O)N(O)CCCCCNC(=O)CCC(=O)N(O)CCCCCN`
RESULT: inactive

QUERY: // return assay outcome for CCC(C)N(C)C(=O)c1cc2ccccc2c(-c2ccccc2Cl)n1 (configuration not stated)
RESULT: active

====

assay: A CellTox Green Cytotoxicity Assay to monitor cytotoxicity in HEK293 cells - 40 hour (AID 1224871); details: CellTox Green fluorescence; series mostly up to 76.8 µM; note: nearly all actives have a fitted effect of over 45% in size
Results filed as inconclusive are left out. Active and inactive are the calls of the source. The call rests on the fitted dose curve; in most records, active means well fitted activation curve with a large enough effect in the repeat runs; inconclusive means weak or mixed curves; inactive means flat fitted curve, though single readings scatter.
endpoint_label: outcome

Completed entries (count: 5):
| molecule | outcome |
| --- | --- |
| CCCCOc1ccc(CC(=O)NO)cc1 | inactive |
| COC(Cc1ccccc1)OC | inactive |
| COC(=O)C(C)=O | inactive |
| CC(C)CC=O | inactive |
| O=C(O)COC(=O)Cc1ccccc1Nc1c(Cl)cccc1Cl | inactive |

QUERY: Please look up its outcome: CC(=O)/C=C/C1C(C)=CCCC1(C)C (stereo not drawn)
RESULT: inactive

QUERY: Please look up its outcome: `Cc1cccc(Oc2ccccc2)c1`
RESULT: inactive

QUERY: Please look up its outcome: `O=C(O)Cc1cc(I)c(Oc2ccc(O)c(I)c2)c(I)c1`
RESULT: inactive

QUERY: Please look up its outcome: `CC(C)(C)C(=O)OCOP(=O)(COCCn1cnc2c(N)ncnc21)OCOC(=O)C(C)(C)C`
RESULT: inactive

QUERY: Please look up its outcome: `Cc1ccc(O)c([C@H](CCN(C(C)C)C(C)C)c2ccccc2)c1`
RESULT: inactive

QUERY: Please look up its outcome: `Cc1ncsc1CCO`
RESULT: inactive

QUERY: Please look up its outcome: `Cc1cccc(OCCOc2cccc(C)c2)c1`
RESULT: inactive

QUERY: Please look up its outcome: `CCCCCCCCCCCCCCCC(=O)OC/C=C(C)/C=C/C=C(C)/C=C/C1=C(C)CCCC1(C)C`
RESULT: inactive
